# study target: feline FcRn complex (FcRn-α subunit and β-microglobulin), biotin labeled (feline)
# protocol description: SPR, pH 7.4
quantity kind: pKd
Field pKd (float): negative decimal logarithm of the concentration in molar.

Examples with answers:
feline IgG1a T256F (antibody, part only; not given: Variable domains, not shown: another chain or arm of the molecule) constant: ASTTAPSVFPLAPSCGTTSGATVALACLVLGYFPEPVTVSWNSGALTSGVHTFPAVLQASGLYSLSSMVTVPSSRWLSDTFTCNVAHPPSNTKVDKTVRKTDHPPGPKPCDCPKCPPPEMLGGPSIFIFPPKPKDTLSISRFPEVTCLVVDLGPDDSDVQITWFVDNTQVYTAKTSPREEQFNSTYRVVSVLPILHQDWLKGKEFKCKVNSKSLPSPIERTISKAKGQPHEPQVYVLPPAQEELSRNKVSVTCLIKSFHPPDIAVEWEITGQPEPENNYRTTPPQLDSDGTYFVYSKLSVDRSHWQRGNTYTCSVSHEALHSHHTQKSLTQSPGK | 6.37
feline IgG1a S252H/S434L (antibody, part only; not given: Variable domains, not shown: another chain or arm of the molecule) constant: ASTTAPSVFPLAPSCGTTSGATVALACLVLGYFPEPVTVSWNSGALTSGVHTFPAVLQASGLYSLSSMVTVPSSRWLSDTFTCNVAHPPSNTKVDKTVRKTDHPPGPKPCDCPKCPPPEMLGGPSIFIFPPKPKDTLHISRTPEVTCLVVDLGPDDSDVQITWFVDNTQVYTAKTSPREEQFNSTYRVVSVLPILHQDWLKGKEFKCKVNSKSLPSPIERTISKAKGQPHEPQVYVLPPAQEELSRNKVSVTCLIKSFHPPDIAVEWEITGQPEPENNYRTTPPQLDSDGTYFVYSKLSVDRSHWQRGNTYTCSVSHEALHLHHTQKSLTQSPGK | 8.42
feline IgG1a S252Y/S428Y/L314K (antibody, part only; not given: Variable domains, not shown: another chain or arm of the molecule) constant: ASTTAPSVFPLAPSCGTTSGATVALACLVLGYFPEPVTVSWNSGALTSGVHTFPAVLQASGLYSLSSMVTVPSSRWLSDTFTCNVAHPPSNTKVDKTVRKTDHPPGPKPCDCPKCPPPEMLGGPSIFIFPPKPKDTLYISRTPEVTCLVVDLGPDDSDVQITWFVDNTQVYTAKTSPREEQFNSTYRVVSVLPILHQDWKKGKEFKCKVNSKSLPSPIERTISKAKGQPHEPQVYVLPPAQEELSRNKVSVTCLIKSFHPPDIAVEWEITGQPEPENNYRTTPPQLDSDGTYFVYSKLSVDRSHWQRGNTYTCSVYHEALHSHHTQKSLTQSPGK | 4.63

From here, focus on the item given below.
pKd for feline IgG1a S252Y/S428M/D312P (antibody, part only; not given: Variable domains, not shown: another chain or arm of the molecule) constant: ASTTAPSVFPLAPSCGTTSGATVALACLVLGYFPEPVTVSWNSGALTSGVHTFPAVLQASGLYSLSSMVTVPSSRWLSDTFTCNVAHPPSNTKVDKTVRKTDHPPGPKPCDCPKCPPPEMLGGPSIFIFPPKPKDTLYISRTPEVTCLVVDLGPDDSDVQITWFVDNTQVYTAKTSPREEQFNSTYRVVSVLPILHQPWLKGKEFKCKVNSKSLPSPIERTISKAKGQPHEPQVYVLPPAQEELSRNKVSVTCLIKSFHPPDIAVEWEITGQPEPENNYRTTPPQLDSDGTYFVYSKLSVDRSHWQRGNTYTCSVMHEALHSHHTQKSLTQSPGK is 7.60
